Provenance of the data: paper PMC8222333

# Target or system: d-enCas12a (Acidaminococcus sp., UniProt U2UMQ6 1-1307, E174R;S542R;K548R;D908A;E993A;D1235A)
# Method description: Spec-seq (native PAGE EMSA with sequencing of bound and unbound); 25 mM Tris-HCl pH 7.4, 150 mM KCl, 5 mM MgCl2, 10% glycerol, 1 mM DTT, 40 ng/uL salmon sperm DNA; 400 nM Cas12a, 480 nM crRNA, 50 nM library, 37 C 1 h; native PAGE at room temperature; high values mean tight binding;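 note: relative affinity from the bound to unbound sequence frequency ratio in Spec-seq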
# Test settings: protein: recombinant
Property measured: binding signal (lnKA)
Give bare numbers, in lnKA.

[
  {
    "Binder": "CATG (dsDNA) DNA 1: GCTATCTAGTGCTCAGTACGCACTGCATGAGGAAACTTCTGGCAGGACCAGGTCATGAGATCGGAAGAGCACACGTCTGAACTCCAGTCA DNA 2: TGACTGGAGTTCAGACGTGTGCTCTTCCGATCTCATGACCTGGTCCTGCCAGAAGTTTCCTCATGCAGTGCGTACTGAGCACTAGATAGC RNA: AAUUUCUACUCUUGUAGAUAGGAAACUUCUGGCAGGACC",
    "Property measured": "binding signal",
    "Unit descriptor": "lnKA",
    "Measurement": -4.73
  }
]

Please go through the list and note binding signal for each binder.
1. TAAG (dsDNA) DNA 1: GCTATCTAGTGCTCAGTACGCACTGTAAGAGGAAACTTCTGGCAGGACCAGGTCATGAGATCGGAAGAGCACACGTCTGAACTCCAGTCA DNA 2: TGACTGGAGTTCAGACGTGTGCTCTTCCGATCTCATGACCTGGTCCTGCCAGAAGTTTCCTCTTACAGTGCGTACTGAGCACTAGATAGC RNA: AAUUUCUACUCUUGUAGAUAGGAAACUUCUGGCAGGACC
2. ACAT (dsDNA) DNA 1: GCTATCTAGTGCTCAGTACGCACTGACATAGGAAACTTCTGGCAGGACCAGGTCATGAGATCGGAAGAGCACACGTCTGAACTCCAGTCA DNA 2: TGACTGGAGTTCAGACGTGTGCTCTTCCGATCTCATGACCTGGTCCTGCCAGAAGTTTCCTATGTCAGTGCGTACTGAGCACTAGATAGC RNA: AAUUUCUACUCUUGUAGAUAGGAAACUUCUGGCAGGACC

1: -5.56; 2: -5.81
